Target: CUG-BP2 RRM3 wild-type (UniProt O95319 416-508, Y508W)
Sequence (O95319 416-508 Y508W): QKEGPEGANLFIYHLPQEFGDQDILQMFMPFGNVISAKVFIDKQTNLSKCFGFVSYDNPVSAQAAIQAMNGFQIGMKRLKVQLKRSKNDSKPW
Assay: NMR 15N-HSQC titration; 20 mM K phosphate pH 5.8, 10 mM NaCl, 0.1% beta-mercaptoethanol, 25 C (NMR titrations and ITC); hnRNP A1: 10 mM Na phosphate pH 6.5, 10 mM beta-mercaptoethanol
Conditions: protein: recombinant
Can you tell me pKd for the items I'm about to list?
The meaning of pKd here: minus log10 of the concentration in molar units.

Return reported pKd; argument: CUUAA (ssRNA) 4.27

Next up: UUCAA (ssRNA) 4.25

Subsequent entry: UCUAA (ssRNA) 4.12

Please do the same for UUUCA (ssRNA) as well. 4.14

Also need UUUAC (ssRNA) , thanks. 4.25
